# Protocol Details: Plasma PK of brensocatib, BID vs QD oral dosing, Sprague Dawley rats
# Assay type: in vivo
# Measurement Context: both sexes, Sprague-Dawley, rat, SD rats, oral BID, 20 mg/kg/day, first 24 h, read-out: AUC0–24h

| Compound | AUC(0-t) [ng·h/mL] |
| --- | --- |
| Cn1c(=O)oc2ccc(-c3ccc(C[C@@H](C#N)NC(=O)[C@@H]4CNCCCO4)cc3)cc21 [brensocatib] | 72600 |

---

# Protocol Details: Plasma PK of brensocatib, BID vs QD oral dosing, BALB/c mice
# Assay type: in vivo
# Measurement Context: both sexes, BALB/c, mouse, po, 3 mg/kg/day, oral QD, 3 mg/kg/day, read-out: t1/2, AM dose (converted)
# Description: A dose frequency study was performed in male and female mice (C57BL/6 & BALB/c) and in male and female rats (Sprague Dawley & Wistar) investigating twice daily (BID) versus once daily (QD) brensocatib administration. Briefly, animals were weighed and randomized into different treatment groups. […] For sparse PK analysis via LC-MS/MS, plasma was collected from animals during the first 24 h of dosing at prescribed timepoints. […] See section Quantification of Plasma Brensocatib Concentrations for details. […]
Readout Name: half-life (min)

| Compound | Scale Unit | Test Result |
| --- | --- | --- |
| Cn1c(=O)oc2ccc(-c3ccc(C[C@@H](C#N)NC(=O)[C@@H]4CNCCCO4)cc3)cc21 [brensocatib] | min | 49.8 |
